Data origin, for the record: patent US20210388087A1

For each record, write down the corresponding fold change of affinity.
# Target or test system: Human CD137 ECD (human)
# Sequence (chain, as listed by the source limits assumed): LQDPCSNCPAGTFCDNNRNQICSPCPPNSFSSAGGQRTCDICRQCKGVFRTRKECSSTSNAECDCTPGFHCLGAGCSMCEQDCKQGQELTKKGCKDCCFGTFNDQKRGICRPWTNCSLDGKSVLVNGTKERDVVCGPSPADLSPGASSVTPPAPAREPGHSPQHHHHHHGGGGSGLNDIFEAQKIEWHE
# Experiment description: single mutant vs template dBBDu183H
Write the answer as a number in fold, unit excluded.

Task: Respond only with fold change of affinity recorded for H183/L072 VH F29E (antibody, name in Kabat numbering, V domains shown) VH: QVQLVESGGGLVQPGRSLRLSCAASGFTESNAWMHWVRQAPGKGLEWVAQIKDKGNAYAAYYAPSVKGRFTISRDDSKNSIYLQMNSLKTEDTAVYYCHYVHYASASTVLPAFGVDAWGQGTTVTVSS VL: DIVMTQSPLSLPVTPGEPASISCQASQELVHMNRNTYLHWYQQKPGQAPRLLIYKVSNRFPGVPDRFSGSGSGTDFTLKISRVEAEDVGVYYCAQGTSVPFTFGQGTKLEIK
Result: 0

Task: Respond only with fold change of affinity recorded for H183/L072 VH D52aF (antibody, name in Kabat numbering, V domains shown) VH: QVQLVESGGGLVQPGRSLRLSCAASGFTFSNAWMHWVRQAPGKGLEWVAQIKFKGNAYAAYYAPSVKGRFTISRDDSKNSIYLQMNSLKTEDTAVYYCHYVHYASASTVLPAFGVDAWGQGTTVTVSS VL: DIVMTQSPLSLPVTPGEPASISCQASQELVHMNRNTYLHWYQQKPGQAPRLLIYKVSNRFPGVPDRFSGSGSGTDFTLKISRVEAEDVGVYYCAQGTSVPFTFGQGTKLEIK
Result: 0
